These data points were gathered from ChEMBL document CHEMBL1201862.

tested on: HT-29; experiment: NCI tumour cell line growth inhibition, 48 h
Active and inactive are the calls of the source. Cut-off read from the data, not from the text of the source: active = GI50 up to about 1.1 µM and inactive = higher.
parameter.measured: GI50

Please review the following examples before continuing.
INSERT INTO results (molecule, subject_of_test, parameter_measured, obs_value) VALUES
  ('COc1cc(C=O)cc(/C=N/c2ccccn2)c1O', 'HT-29', 'GI50', '11.5 µM (inactive)'),
  ('Cc1ccc(S(=O)(=O)NC(=O)NC(C(=O)O)C(C)O)cc1 (stereo unspecified)', 'HT-29', 'GI50', '> 100 µM (inactive)'),
  ('CN1N=C2c3ccccc3CC[C@H]2C1c1ccccc1 (stereo partly specified)', 'HT-29', 'GI50', '22.9 µM (inactive)'),
  ('CCOC(=O)Cn1c(=O)n(C)c(=O)c2[nH]cnc21', 'HT-29', 'GI50', '> 100 µM (inactive)'),
  ('O=c1c2cc(Br)cc(Br)c2[nH]c(=S)n1-c1ccc(/N=N/c2ccc(O)c3cccnc23)cc1', 'HT-29', 'GI50', '39.6 µM (inactive)'),
  ('N=c1oc2ccc3ccccc3c2cc1C(N)=O', 'HT-29', 'GI50', '38.7 µM (inactive)'),
  ('COc1ccc(N2C(=O)CC(C3CC(C(C)(C)C)CCC3=O)C2=O)cc1 (stereo unspecified)', 'HT-29', 'GI50', '> 100 µM (inactive)'),
  ('COC(=O)C1CC2C=CC=CC(=O)C2(C)C1 (stereo unspecified)', 'HT-29', 'GI50', '40 µM (inactive)'),
  ('CCc1cccc(C)c1N1C(=O)C(=O)C(c2nc3ccccc3o2)C(=O)C1=O', 'HT-29', 'GI50', '> 100 µM (inactive)'),
  ('COc1ccc(/C=C2/S/C(=N\c3ccccc3)N(NC(=O)Cc3ccccc3)C2=O)c(OC)c1', 'HT-29', 'GI50', '> 100 µM (inactive)');

Shift focus to the following entry.
[Q] Can you share its GI50? I mean this molecule: Nc1cc2c3c(cccc3c1)C(=O)N(c1ccc(OCCN3CCCC3)cc1)C2=O
[A] 13.5 µM (inactive)

====

system: IGROV-1; assay: NCI tumour cell line growth inhibition, 48 h
Calls of active or inactive are those of the source. Rule as the data show it: active = GI50 up to about 1.1 µM and inactive = higher.
Valid outcomes are listed here; reply with one: active, inactive

[Q] Each compound tested received a call. Report the one for CC(=O)C=C1Nc2ccccc2N1 .
[A] inactive

[Q] Now the compound COc1cc2c(c(OC)c1)C(C)=NC(C)C2 (stereo not given)
[A] inactive

[Q] Now the compound O=C(NNC(=O)c1cc(/C=C/c2cccc([N+](=O)[O-])c2)nc(S)n1)Nc1ccc(Cl)cc1
[A] inactive

[Q] Now the compound c1ccc(C(NC2=NCCO2)C2CC2)cc1 (stereo not given)
[A] inactive

[Q] Now the compound CN(C)c1ccc(/C=C2\C[C@H]3[C@@H]4CC=C5C[C@@H](N6CCCC6)CC[C@]5(C)[C@H]4CC[C@]3(C)[C@H]2O)cc1
[A] active

[Q] Now the compound O=S(=O)(c1ccccc1)[C@H]1[C@@H]2O[C@@H]2C[C@@H]1O
[A] inactive

====

system: NCI-H522; experiment: NCI tumour cell line growth inhibition, 48 h
Activity calls are given as the source filed them. Rule as the data show it: active = GI50 up to about 1.1 µM and inactive = higher.
GI50: recorded values

Please review the following examples before continuing.
INSERT INTO results (molecule, parameter_measured, obs_value) VALUES
  ('COc1ccc(N2C(=O)CC(C3CC(C(C)(C)C)CCC3=O)C2=O)cc1 (stereo unspecified)', 'GI50', '10.7 µM (inactive)'),
  ('CC(C)=CCN1CC(C)C(=O)Nc2ccccc21 (stereo unspecified)', 'GI50', '66.8 µM (inactive)'),
  ('Cc1ccc2nc(N/N=C/c3cccc(C)n3)cc(C)c2c1', 'GI50', '17.6 µM (inactive)');

[Q] Can you share its GI50? I mean this molecule: CC(=O)c1c(O)ccc2c1CC(CC=O)O2 (stereo unspecified)
[A] 60.5 µM (inactive)

[Q] Now the molecule COC(=O)C1CC2C=CC=CC(=O)C2(C)C1 (stereo unspecified)
[A] > 10 µM (inactive)

[Q] Now the molecule COP(=O)(OC)c1ccc(NCc2cc(O)ccc2O)cc1
[A] 17.3 µM (inactive)

[Q] Now the molecule Clc1ccc(C(SCc2ccccc2)SCc2ccccc2)cc1
[A] > 10 µM (inactive)

[Q] Now the molecule COc1ccc(C(O)/C(=N/N)c2nc3ccc(Cl)cc3nc2O)cc1 (stereo unspecified)
[A] > 100 µM (inactive)

[Q] Now the molecule CCOC(=O)CCSc1nc2ccc(I)cc2c(=O)n1Cc1ccccc1
[A] 10.7 µM (inactive)

[Q] Now the molecule Cc1ccc([N+](=O)[O-])cc1S(=O)(=O)Nc1ccc(C2=NN(S(=O)(=O)c3cc([N+](=O)[O-])ccc3C)C(c3ccco3)C2)cc1 (stereo unspecified)
[A] 45 µM (inactive)

[Q] Now the molecule COc1ccccc1/C=C1\C(=O)N(C(=O)Cc2ccccc2)N=C1C
[A] > 100 µM (inactive)
